# System: NCI-H322M lung
# TEST METHOD NOTES: NCI-60 one-dose screen, 48 h
# MEASUREMENT PARAMETERS: 10 µM unless noted
Compounds without any hit were thinned out: in the full panel of roughly 83,000, 20% have a hit. The source made the active and inactive calls. The calls were made as follows: active = growth percent below 10; inactive = the rest.
Parameter call: string, one of Yes = active, No = inactive

MOLECULE	CATEGORY
COc1ccc(C2CC(c3ccc4ccccc4c3)=NN2c2nc(O)c(C3=c4cc(OC)ccc4=NC3=O)s2)cc1 (configuration not stated)	Yes
O=C(CCCSc1nc(-c2ccccc2)cc(-c2ccccc2)n1)NO	No
O=[N+]([O-])c1ccc(O)c(-c2nc3ccccc3s2)c1	No
Nc1cc(C(=O)O)[nH]c(=S)n1	No
Cc1ccccc1OC(=O)c1cccc(Cl)c1	No
O=C(CCCCCCSc1nc(-c2ccc(Cl)cc2)cc(-c2ccc(Cl)cc2)n1)NO	No

Input: Record request — test call for "Cc1ccc(N)c(O)c1"
Output: No

Input: Hello, I am checking results. What call was entered for "COc1cc(-c2cc(-c3ccc(Nc4ncnc5cc(Cl)ccc45)cc3)nc(N3CCCCC3)n2)cc(OC)c1OC" ?
Output: No

Input: Could you kindly confirm the outcome this assay logged for "O=C(N=c1n(-c2ccccc2)nc2n1CCN2C1=NCCN1)c1ccc(Cl)cc1" ?
Output: No

Input: What did the test return for "Cc1ccc(-n2nc3n(/c2=N\C(=O)NS(=O)(=O)c2ccc(C)cc2)CCN3C2=NCCN2)cc1" ?
Output: No

Input: Which outcome was assigned to "Cc1cccc(C[C@H](NC(=O)Nc2ccc(C)cc2F)C(=O)N[C@@H]2C(=O)N3C[C@H](O)C[C@H]3C(=O)N3CCN(C)C[C@H]3C(=O)N[C@@H](C)C(=O)N3C[C@H](C)C[C@H]3C(=O)O[C@H]2C)c1" in this test?
Output: No

Input: Would you mind telling me which call this test gave "COc1cc(C)cc2oc3oc(=N)c(C(=O)c4ccccc4)cc3c(=O)c12" ?
Output: No

Input: So what was the verdict on "CNc1cc(C(=O)O)nc(NC)n1" in this test?
Output: No

Input: Short answer needed: outcome of this test for "O=S(=O)(NCc1ccccc1)c1ncnc2nc[nH]c12" ?
Output: No

Input: Could you please tell me the result logged for CCN(CC)c1ccc2cc(NC(=O)OCCNC(=O)CCNC(=O)[C@H](CC(C)C)NC(=O)C(C)(C)NC(=O)C(C)(C)NC(=O)[C@H](CC(C)C)NC(=O)CCNC(=O)C(C)(C)NC(=O)[C@H](CC(C)C)NC(=O)CCNC(=O)[C@@](C)(CC)NC(=O)[C@H](C)NC(=O)CCNC(=O)C(C)(C)NC(=O)[C@H](C)NC(=O)[C@@H]3CCCN3C(=O)[C@@](C)(CC)NC(=O)[C@H](Cc3ccccc3)NC(=O)C3CCCN3C(=O)C(C)(C)NC(=O)C3CCCN3C(=O)C(C)(C)NC(C)=O)c(=O)oc2c1 (some centres not stated) in this assay?
Output: Yes

---

# Tested on: T-47D breast
# TEST METHOD NOTES: NCI-60 one-dose screen, 48 h
# MEASUREMENT PARAMETERS: 10 µM unless noted
Compounds without any hit were thinned out: in the full panel of roughly 83,000, 20% have a hit. Activity calls are given as the source filed them. The calls were made as follows: active = growth percent below 10; inactive = the rest.
Pick one and only one: label 1 = active, label 0 = inactive

// below: answered compounds
COMPOUND	CATEGORY
Nc1cc(NN=C(c2ccc(O)cc2)c2ccc(O)cc2)c([N+](=O)[O-])cc1[N+](=O)[O-]	label 1
CCCCCCCCCCCCNC(=S)N/N=C/c1ccccc1O	label 0
CCOC(=O)c1cc(C#N)n2ncc3ccccc3c12	label 0

Input: Please state the recorded outcome for this compound: "CC(C)(C)c1cc(C(=O)Nc2cc3ccccc3cc2C(=O)NCCN)cc(C(C)(C)C)c1"
Output: label 1

Input: Look up the recorded call for "Oc1cc(Nc2ccnc3cc(Cl)ccc23)c2ncccc2c1" in this test.
Output: label 0

Input: Status in this test for CC[C@@](C)(NC(=O)[C@H](C)NC(=O)CCNC(=O)C(C)(C)NC(=O)[C@H](C)NC(=O)[C@@H]1CCCN1C(=O)[C@@](C)(CC)NC(=O)[C@H](Cc1ccccc1)NC(=O)C1CCCN1C(=O)C(C)(C)NC(=O)C1CCCN1C(=O)C(C)(C)NC(C)=O)C(=O)NCCC(=O)N[C@@H](CC(C)C)C(=O)NC(C)(C)C(=O)NCCC(=O)N[C@@H](CC(C)C)C(=O)NC(C)(C)C(=O)NC(C)(C)C(=O)N[C@@H](CC(C)C)C(=O)NCCC(=O)NCO (some centres undefined) ?
Output: label 1

Input: Recorded call for "COCCCNc1nc(NC(=O)c2cc(OC)cc(OC)c2)cc(-c2cccnc2)n1" ?
Output: label 0

Input: Check the results log: what was the call for "Cc1ccc(NCCN2CCCCC2)c2c(=O)c3ccccc3sc12" ?
Output: label 0

Input: Call for entry "Cc1ccc(S(=O)(=O)NCCCNc2nccc(-c3c(-c4cccc(F)c4)nc4occn34)n2)cc1" :
Output: label 0

---

# Test system: SN12C renal
# TEST METHOD NOTES: NCI-60 one-dose screen, 48 h
# MEASUREMENT PARAMETERS: 10 µM unless noted
The panel holds about 83,000 compounds, 20% with a hit somewhere; the sample as a whole holds those more often. Activity calls are given as the source filed them. The calls were made as follows: active = growth percent below 10; inactive = the rest.
The categories you may choose from are yes (1) for active, no (0) for inactive

// below: answered molecules
MOLECULE	CATEGORY
COc1cc(-c2nc(SCCC(C)C)nc(Nc3ccccc3)c2C#N)cc(OC)c1OC	no (0)
CCN(CC)c1ccc2cc(C(Nc3ccc(Br)c(C(F)(F)F)c3)c3nnnn3C(C)(C)C)c(=O)oc2c1 (configuration not stated)	no (0)
O=C(OCc1ccc2c(Cl)cc(Cl)c(O)c2n1)N1CCNCC1	no (0)
COc1ccc(/C=C(/C(=O)c2ccc(Cl)cc2)C(=O)C(F)(F)F)cc1	no (0)

Input: Could you check what this test reported for "O=C1C(Cl)=C(Nc2ccc3cn[nH]c3c2)C(=O)c2ccccc21" ?
Output: yes (1)

Input: Outcome? "C=C(C)[C@@H]1CC[C@]2(C(=O)NCCNCCNC(=O)OC(C)(C)C)CC[C@]3(C)[C@H](CC[C@@H]4[C@@]5(C)CCC(=O)C(C)(C)[C@@H]5CC[C@]43C)[C@@H]12"
Output: no (0)

Input: Outcome logged for "COCCCNc1nc(NC(=O)c2cc(OC)cc(OC)c2)cc(-c2cccnc2)n1" in this assay:
Output: no (0)

Input: Just curious, what result did "Cc1cccc(C[C@H](NC(=O)Nc2ccc(Cl)cc2F)C(=O)N[C@@H]2C(=O)N3C[C@H](OC(=O)CCN(C)C)C[C@H]3C(=O)N3CCCC[C@H]3C(=O)N[C@@H](C)C(=O)N3C[C@H](C)C[C@H]3C(=O)O[C@H]2C)c1" get here?
Output: no (0)

Input: What classification did "Clc1ccccc1/C=N\Nc1ccccn1" end up with in this test?
Output: no (0)

Input: Just curious, what result did CC1Cc2c(ncnc2-n2cnc3ccccc32)N(C)c2ccccc21 (configuration not stated) get here?
Output: no (0)

Input: For this molecule, state the assay outcome: "CCN(CCO)CCC(=O)c1ccc([N+](=O)[O-])cc1"
Output: no (0)

Input: Assay result, entry "O=C(CCNCc1ccccc1)c1ccccc1" — outcome?
Output: no (0)

Input: Hi, do you know how "O=C(O)c1cn(C2CC2)c2cc(N3CCN(Cc4cc(Cl)ccc4O)CC3)c(F)cc2c1=O" came out in this test?
Output: no (0)

Input: Hi, do you know how "CC(C)(C)OC(=O)N1C=C/C(=C\Cn2cc(-c3ccccc3)nn2)CC1" came out in this test?
Output: no (0)

Input: Kindly provide the recorded test outcome for the following molecule: "O=C1COCCN1c1ccc(Nc2nc(Cl)nc(N3CCOCC3)n2)cc1"
Output: no (0)

Input: Answer briefly: the call reported for "C=C(C)[C@@H]1CC[C@]2(C)[C@H](CC[C@@H]3[C@@H]([C@@](C)(O)CCC=C(C)C)CC[C@]32C)[C@@]1(C)CCC(=O)O" in this assay.
Output: yes (1)

Input: What outcome does the record of this test show for "CCOC(=O)c1nc2c3ccccc3ccn2c1C(=O)OC" ?
Output: no (0)

Input: Returns: the outcome recorded for "CC1(C)C(=NO)C(C)(C)C1=NO" in this assay.
Output: no (0)

Input: What did this assay record as the result for "CCCCNC(=O)NS(=O)(=O)Cc1ccccc1" ?
Output: no (0)

Input: Entry COc1ccccc1S(=O)Nc1ccccc1 (configuration not stated) : call = ?
Output: no (0)

Input: Fill in: this test's call for "O=S(=O)(/N=c1/n(-c2ccccc2)nc2n1CCN2C1=NCCN1)c1ccc(-c2ccccc2)cc1" is ___
Output: no (0)

Input: I would be grateful if you could indicate the recorded call for Cc1ccc(S(=O)(=O)N/N=C2\CC3CCC2(C)C3(C)C)cc1 (configuration not stated) .
Output: no (0)

Input: Test call, this molecule: "N#C/C(C(=O)c1ccccc1)=C1/C(=O)Nc2ccc(Br)cc21"
Output: no (0)

Input: Lab log entry: "CCN1CCN(CC(=O)Nc2nc3ccc(NCc4ccc(Cl)cc4)cc3s2)CC1" — outcome as called in the assay?
Output: no (0)

Input: Hi, sorry to bother you, what did the test record for "CCOc1ccc(/C=C(\C#N)c2cc3ccccc3[nH]2)cc1" ?
Output: no (0)
